# GI50 per entry
- Test system: OVCAR-5
- assay-name: NCI tumour cell line growth inhibition, 48 h
The source made the active and inactive calls. Cut-off read from the data, not from the text of the source: active = GI50 up to about 1.1 µM and inactive = higher.

A selection of reference data follows.
| compound | GI50 |
| --- | --- |
| CC(=O)O[C@H]1CC[C@@]2(C)C(=C/C(=N\[N+](=O)[O-])[C@H]3C4CCC([C@H](C)CCCC(C)C)[C@@]4(C)CCC32)C1 (some centres not stated) | > 100 µM (inactive) |
| C=Cc1c(C)c(OC)cc2c1Oc1ccc(OC)c(C)c1CC2 | > 100 µM (inactive) |
| ClC1(Cl)C(c2ccccc2)C1c1ccccc1 (configuration not stated) | 43.6 µM (inactive) |
| Cc1cc(S(=O)(=O)Nc2nc(N)nc(N3N=CCC3C)n2)c(S)cc1Cl (configuration not stated) | > 10 µM (inactive) |

In: Quick one: GI50 of CC(C)(CN1CCCCC1)C(=O)CC(SCCS(=O)(=O)O)c1ccc(Cl)cc1 (configuration not stated) ?
Out: 1.86 µM (inactive)

In: Record request: GI50 value, item "COc1ccc2c(c1)c1c3n2CCNN=C3CCC1"
Out: > 57.4 µM (inactive)

In: Requested field: GI50. Item: CC(=O)NC(C)(C)C1CCC(C)CC1 (configuration not stated)
Out: > 100 µM (inactive)

In: Please report the recorded GI50 for "O=C(c1ccco1)N(C(=S)OCc1ccccn1)c1ccccc1" .
Out: > 100 µM (inactive)

In: Give its GI50 value. Item: "Cc1cccc(Cl)c1NC(=O)c1cccc([N+](=O)[O-])c1O"
Out: 23.9 µM (inactive)

The reported numbers originate from ChEMBL document CHEMBL1201862.
